Each entry below carries its recorded activity change, negative = inhibition.
- Protocol Description: qHTS Assay for Lipid Storage Modulators (AID 1519); note: % is set by controls: 0 for no effect and ±100 for the full control effect
- Condition Parameters: Drosophila S3 cells, BODIPY lipid droplet/cell ratio, laser cytometry; at 57.5 µM (top of the series); cells loaded with oleic acid
Results filed as inconclusive are left out.
Reported Metric: activity change, negative = inhibition (%)

Fc1ccc(Nc2ccnc(-c3ccoc3)n2)cc1; 8.99
O=c1cnc2cnc(Nc3ccccc3)nc2n1C1CC1; -0.874
CN1CCN(c2ncc3nc(-c4cccc(C#N)c4)c(=O)n(Cc4ccc(F)cc4)c3n2)CC1; -3.63
O=C(c1cccc(F)c1)N1CCC2(CC1)CN(c1cccc(-c3ccccc3)c1)C2; -19.2
CCNc1ncc2ncc(=O)n(Cc3cccs3)c2n1; 5.21
